# Test system: Hepatitis C virus NS3 helicase
# Test details: blockers of NS3h binding to ssDNA – biochemical, fluorescence polarization, LOPAC1280 library, primary screen (AID 687035)
# Conditions used: Purified HCV NS3 helicase, Cy5-dT15 ssDNA binding fluorescence polarization; stronger effect = higher value; concentration not given here
Measured endpoint: inhibition (%)
Write down the numeric answer in % and omit the unit.

Study these solved cases before continuing.
1. Cn1cnc2c1c(=O)[nH]c(=O)n2C ... -5
2. CNC[C@H](O)c1ccc(O)c(O)c1 ... -5
3. C[C@]12C[C@H](O)[C@H]3[C@@H](CCC4=CC(=O)CC[C@@]43C)[C@@H]1CC[C@@H]2C(=O)CO ... 0
4. CCN1CCC[C@H]1CNC(=O)c1cc(S(N)(=O)=O)ccc1OC ... -1
5. O=C(c1ccc(F)cc1)C1CCN(CCn2c(=O)[nH]c3ccccc3c2=O)CC1 ... 2
6. Cc1nc2sccn2c(=O)c1CCN1CCC(=C(c2ccc(F)cc2)c2ccc(F)cc2)CC1 ... 0
7. CN(Cc1cnc2nc(N)nc(N)c2n1)c1ccc(C(=O)N[C@@H](CCC(=O)O)C(=O)O)cc1 ... -1
8. CCCC(C(=O)OCCN(CC)CC)(c1ccccc1)c1ccccc1 ... -6
9. CCOC(=O)c1ncn2c1CN(C)C(=O)c1cc(F)ccc1-2 ... -4

Below: the item to evaluate.
Provide measured inhibition value, entry: COc1ccc(CCN(C)CCCC(C#N)(c2ccc(OC)c(OC)c2)C(C)C)cc1OC (stereo not given)
-3

###

# Test details: EMT-state selective cytotoxicity in co-culture – imaging, PC-3E GFP, TEM4-18 mCherry, primary screen (AID 1345086);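 also: normalised mesenchymal count divided by normalised epithelial count so high means epithelial killing; cells exposed to compound for 72 h before imaging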
# Conditions used: PC-3E GFP / TEM4-18 mCherry co-culture, imaging cell counts; at 1 µM; actives lie on both sides; counts scaled to control wells, 1 = unselective
Measured red/green cell ratio (normalised), listed per entry.
Keep it simple and answer with nothing but the number.

Provide measured red/green cell ratio (normalised) value, entry: `CCCCc1nc(Cl)c(CO)n1Cc1ccc(-c2ccccc2-c2nn[nH]n2)cc1`
1.09

###

# Test details: stimulators of insulin release from INS-1E, primary screen, cell-based, 5 mM glucose, NPC library (AID 1117329)
# Conditions used: rat INS-1E insulin secretion, at 10 µM
Calls of active or inactive are those of the source.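 How the source made its calls: active means compound raises insulin release from rat beta cells at 5 mM glucose, no numeric limit stated; inactive means the rest.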
Field 'call' accepts active, inactive

1. Oc1c(Cl)cc(Cl)c(Cl)c1Cc1c(O)c(Cl)cc(Cl)c1Cl ... inactive

Give the logged outcome of this assay for the following compound: `CC1(C)O[C@H]2CC(=O)OC[C@]23[C@H]2CC[C@@]4(C)[C@H](c5ccoc5)OC(=O)[C@H]5O[C@]54[C@]2(C)C(=O)C[C@@H]13`
inactive

Give the logged outcome of this assay for the following compound: `Cc1ccc(C(=O)c2ccc(CC(=O)O)n2C)cc1`
inactive

Give the logged outcome of this assay for the following compound: CC(C)NCC(O)c1ccc2ccccc2c1 (stereo unspecified)
inactive

Give the logged outcome of this assay for the following compound: `C[C@@H]1CN(c2c(F)c(N)c3c(=O)c(C(=O)O)cn(C4CC4)c3c2F)C[C@H](C)N1`
inactive

Give the logged outcome of this assay for the following compound: CCc1c(C)[nH]c2c1C(=O)C(CN1CCOCC1)CC2 (stereo unspecified)
inactive

Give the logged outcome of this assay for the following compound: `CC(=O)Nc1cccc(O)c1`
inactive
